# Tested on: RXF 393 renal
# METHOD_NOTES: NCI tumour cell line growth inhibition, 48 h; in the data active = GI50 below about 0.43 µM; inactive = the rest
Write down one outcome, taken from active, inactive

For COc1ccc(C2=NN(C(=O)COc3ccc(Cl)cc3)C(O)(c3cc(F)c(Cl)cc3Cl)C2)cc1OC (stereo not given) , what call appears in the results of this test?
inactive

For CCCc1ccc(S(=O)(=O)N[C@H]2CC[C@H]3[C@@H]4CCc5cc(O)ccc5[C@H]4CC[C@]23C)cc1 , what call appears in the results of this test?
inactive

For N#CC1=C(N)NC(=S)NC12Nc1ccccc1O2 (stereo not given) , what call appears in the results of this test?
inactive

For COc1ccc(/C=C\c2cc(OC)c(OC)c(OC)c2)cc1OC(=O)C(N)CCC(=O)O (stereo not given) , what call appears in the results of this test?
active

For O=C1CCCCCCCC/C=C/CCC(c2ccco2)O1 (stereo not given) , what call appears in the results of this test?
inactive
